Recorded values, source PubChem BioAssay (NCI).

Measured TGI, listed per entry.
tested on: HCT-15 colon; test: NCI tumour cell line growth inhibition, 48 h

INSERT INTO assay_data (compound, quantity_name, observed_measurement) VALUES
  ('COc1cc(NS(=O)(=O)c2ccc(C)cc2)c2nccnc2c1', 'TGI', '> 100 µM'),
  ('CN(C)CCOc1ccc([N+](=O)[O-])c2cccnc12', 'TGI', '> 100 µM'),
  ('CCN1C[C@]2(C)CC[C@H](O)C34C1C(C[C@@H]32)[C@@]1(O)CC[C@H]2C[C@@H]4[C@@H]1[C@H]2O', 'TGI', '> 100 µM');

For reference, reported TGI for C#CC1(O)C(COP(=O)(O)OCC(COP(=O)(O)OCC2OC(n3cc(F)c(=O)[nH]c3=O)CC2O)OCCCCCCCCCCCCCCCCCC)OC(n2ccc(N)nc2=O)C1O (centres undefined) stands at > 100 µM

Memo: O=C(/C=C/c1ccccc1)Nc1ncc(Cc2ccccc2Cl)s1 , reported TGI: > 100 µM

O=c1[nH]c2ccccc2cc1-c1nc2ccc(Cl)cc2[nH]1 yielded TGI of > 100 µM

Reported TGI of CC/C=C\C[C@H]1CC=C2C(=O)C=C[C@@H]2CC=CCCCC(=O)O[C@@H](CCCCC)CC=C2C(=O)C=C[C@@H]2CC=CCCCC(=O)O[C@@H](CCCCC)CC=C2C(=O)C=C[C@@H]2CC=CCCCC(=O)O[C@@H](CCCCC)CC=C2C(=O)C=C[C@@H]2CC=CCCCC(=O)O1 : > 7.9 µM

According to the records, this compound COc1cc(NCC(C#N)C#N)ccc1N=Nc1ccc(Cl)cc1 displays TGI of 47.4 µM

The compound identified as C=CCCON(C(=O)OC(C)(C)C)c1ccccc1 registered its TGI at > 100 µM
